Attribution: PubChem BioAssay (NCATS)

# METHOD: P-glycoprotein substrates identified in KB-8-5-11 adenocarcinoma cell line, qHTS therapeutic library screen (AID 1346987); note: nearly all actives have a fitted effect of over 65% in size; for activity change, negative = cytotoxicity: % is set by controls: 0 for no effect and ±100 for the full control effect
# SETTINGS: KB-8-5-11 (P-gp overexpressing) viability, CellTiter-Glo, 72 h; series mostly up to 44.5 µM
# Description: The ATP-binding cassette transporters P-glycoprotein (P-gp) is known to limit brain penetration of many chemotherapy drugs. […] All cell lines were plated into 1536-well plates at 500 cells/well in 5 uL media. […] CellTiter-Glo reagent (Promega) was dispensed into the wells, incubated for 5 min and luminescence was read on a ViewLux instrument (Perkin-Elmer). […]
Inconclusive results are not listed. Calls of active or inactive are those of the source. Calls come from the whole dose curve; as a rule, active = well fitted inhibition curve with a large enough effect; inconclusive = small, poorly fitted or top-dose-only effect; inactive = flat fitted curve, though single readings scatter.
MEASUREMENT_KIND: activity change, negative = cytotoxicity

1) CC(=O)c1ccc(O[C@@H]2OC[C@@H](O)[C@H](O)[C@H]2O[C@]2(CO)O[C@H](CO)[C@@H](O)[C@@H]2O)c(O)c1    inactive
2) COC(=O)[C@@H](NC(=O)[C@H](CC(C)C)NC(=O)N(Cc1ccccc1)C[C@@H](O)[C@H](Cc1ccccc1)NC(=O)OC(C)(C)C)C(C)C    -2.72% [at 9.29 µM] (inactive)
3) CC(C)/C=C1/NC(=O)C(C(C)C)n2c1nc1c(O)cccc1c2=O (configuration not stated)    inactive
4) CC(C)C1CCC(CO)=CC1/C=C(\CO)C(=O)OCC1(O)CCC(C(C)C)C2C=C(C(=O)O)COC(=O)C21 (configuration not stated)    inactive
5) COC(=O)C1=CO[C@@H](O[C@@H]2O[C@H](CO)[C@@H](O)[C@H](O)[C@H]2O)C2C1CC(O)C2C (some centres not stated)    inactive
6) CC1=CCC2C(C)(C)CCCC2(C)C1CC12OC1C(O)C(CO)=CC2O (configuration not stated)    inactive
7) CC(O)/C=C/C1(O)C(C)C(O)C(O[C@@H]2O[C@H](CO)[C@@H](O)[C@H](O)[C@H]2O)CC1(C)C (some centres not stated)    inactive
8) C/C=C(\C)C(=O)O[C@H]1C=CC(=O)O[C@H]1/C=C/[C@H](O)[C@@H](C)O    inactive

// moving on: another record for activity change, negative = cytotoxicity
What activity change, negative = cytotoxicity value was documented for this compound, C=CC(C)(O)CC/C=C(\C)COC1O[C@H](CO)[C@@H](O)[C@H](O)[C@H]1O (some centres not stated) ?
inactive
